ASSAY EXPLANATION: oxidation potential E1 by cyclic voltammetry
Type: physicochemical
COND: Table H; model compound, A and L replaced by alkyl
Structures can show the parent of a compound that is named as a salt.
ENDPOINT NAME: E1 (V) for XY moiety
Number plus unit, in that order.

Known results for compounds:
compound="CCSCCN(c1ccc(C)cc1)C(CC(=O)O)C(=O)O (stereo not drawn) [Compound S-8]" endpoint_name="E1 (V) for XY moiety" reported_value="0.38 V"
compound="CCSCCN(CCSCC)c1ccc(CC(=O)O)cc1 [Compound S-17]" endpoint_name="E1 (V) for XY moiety" reported_value="0.57 V"

Here's the next entry for you.
Form: compound = CCSCCN(c1ccc(OC)cc1)C(C)C(=O)O (stereo not drawn) [Compound S-1, sodium salt] ; E1 (V) for XY moiety = 0.22 V

Where do these numbers come from? They come from patent US5747235A.
